test: Plasma concentration of Verbindung A after oral administration to rhesus monkeys (determined by 3H-BIBU 52 ligand displacement on human platelets against a calibration curve); assay type: in vivo, Rhesusaffen; conditions: rhesus monkey, oral 1 mg/kg, Rhesusaffe, 12 h after dosing, concentration of Verbindung A measured, read-out: Konz. von A in [nM], 12h
property_label: concentration at 12 h
Note: state the figure and append the unit.

Query: Which measured concentration at 12 h value corresponds to N=C(N)c1ccc(NC(=O)CCC2CCN(CC(=O)O)CC2)cc1 [Verbindung A] ?
Response: 25 nM

----------
experiment: Plasma concentration of Verbindung A after oral administration to rhesus monkeys (determined by 3H-BIBU 52 ligand displacement on human platelets against a calibration curve); assay type: in vivo, Rhesusaffen; settings: rhesus monkey, oral 1 mg/kg, Rhesusaffe, 24 h after dosing, concentration of Verbindung A measured, read-out: Konz. von A in [nM], 24h
property_label: concentration at 24 h

Query: Form field: reported concentration at 24 h of N=C(N)c1ccc(NC(=O)CCC2CCN(CC(=O)O)CC2)cc1 [Verbindung A]
Response: 3 nM

----------
assay: Plasma concentration of Verbindung A after oral administration to rhesus monkeys (determined by 3H-BIBU 52 ligand displacement on human platelets against a calibration curve); format: in vivo, Rhesusaffen; details: rhesus monkey, oral 1 mg/kg, Rhesusaffe, 4 h after dosing, concentration of Verbindung A measured, read-out: Konz. von A in [nM], 4h
property_label: concentration at 4 h (nM)
Answer format: numeric, nM implied, no suffix.

Query: What does the data say about its concentration at 4 h? Entry: N=C(N)c1ccc(NC(=O)CCC2CCN(CC(=O)O)CC2)cc1 [Verbindung A]
Response: 174

----------
assay: Plasma concentration of Verbindung A after oral administration to rhesus monkeys (determined by 3H-BIBU 52 ligand displacement on human platelets against a calibration curve); assay type: in vivo, Rhesusaffen; details: rhesus monkey, oral 1 mg/kg, Rhesusaffe, 8 h after dosing, concentration of Verbindung A measured, read-out: Konz. von A in [nM], 8h
property_label: concentration at 8 h (nM)
Give just the number in nM; leave the unit off.

Query: Need concentration at 8 h of N=C(N)c1ccc(NC(=O)CCC2CCN(CC(=O)O)CC2)cc1 [Verbindung A] , thanks.
Response: 38
